# runDescription: in vivo
# setupConditions: male, New Zealand White Hra:(NZW)SPF, rabbit, plasma, intramuscular, 0.3 mg, Concentration (ng/mL), plasma epinephrine, Group 7, dose 0.3 mg, subject 703, male, Day 1, hour 0, LLQ 1 ng/mL
outcomeMeasure: concentration at 0 h (ng/mL)
One number for each entry, in ng/mL.

Query string: Consider the molecule CNC[C@H](O)c1ccc(O)c(O)c1 [Epinephrine] and give its recorded concentration at 0 h.
Result string: 1.92

---

# runDescription: in vivo
# setupConditions: male, New Zealand White Hra:(NZW)SPF, rabbit, plasma, intramuscular, 0.3 mg, Concentration (ng/mL), plasma epinephrine, Group 7, dose 0.3 mg, subject 701, male, Day 1, hour 1, LLQ 2 ng/mL
outcomeMeasure: concentration at 1 h (ng/mL)
One number for each entry, in ng/mL.

Query string: Give the measured concentration at 1 h for CNC[C@H](O)c1ccc(O)c(O)c1 [Epinephrine]
Result string: 3.1
